Target: 5-lipoxygenase (Rattus norvegicus, UniProt P12527)
Construct: The activities of these enzymes in extracts of RBL-1 cells were assayed; host or cells: RBL-1 cells, supernatant of broken cell extract
Sequence (P12527 whole entry): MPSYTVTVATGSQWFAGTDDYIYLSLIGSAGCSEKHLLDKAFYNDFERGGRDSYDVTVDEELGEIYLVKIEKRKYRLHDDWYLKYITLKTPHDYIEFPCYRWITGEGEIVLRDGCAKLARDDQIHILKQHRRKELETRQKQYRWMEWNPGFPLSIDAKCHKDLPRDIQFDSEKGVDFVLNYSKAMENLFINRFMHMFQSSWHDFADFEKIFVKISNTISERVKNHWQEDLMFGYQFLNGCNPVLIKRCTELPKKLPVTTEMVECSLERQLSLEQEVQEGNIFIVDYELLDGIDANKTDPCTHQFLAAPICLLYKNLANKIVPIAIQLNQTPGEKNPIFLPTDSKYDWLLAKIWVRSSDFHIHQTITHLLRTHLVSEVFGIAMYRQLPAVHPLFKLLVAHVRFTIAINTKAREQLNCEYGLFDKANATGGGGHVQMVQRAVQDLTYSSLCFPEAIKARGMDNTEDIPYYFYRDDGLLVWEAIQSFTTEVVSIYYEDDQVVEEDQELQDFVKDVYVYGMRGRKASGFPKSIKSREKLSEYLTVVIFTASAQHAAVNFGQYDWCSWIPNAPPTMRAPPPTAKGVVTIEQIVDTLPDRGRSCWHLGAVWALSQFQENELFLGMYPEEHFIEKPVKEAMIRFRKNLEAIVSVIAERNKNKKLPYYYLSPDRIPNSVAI
Assay: 5-lipoxygenase activity: 5-HETE production by RBL-1 high speed supernatant
Format: biochemical
Conditions: RBL1 high speed supernatant; read-out: 5LO IC50 (5-HETE Production)
Method: For in vitro experiments, compounds were dissolved at appropriate concentrations in ethanol (final concentration μ1.0%) and then diluted to final concentrations using the buffers indicated in the text. The activities of these enzymes in extracts of RBL-1 cells were assayed using the method of Jakschik and Lee, Nature, 287, 51-52 (1980). […] Arachidonic acid, 5-HETE, LTB4 and PGD2 were quantified with a Berthold LB 2832 autoscanner. […]
For each record, write down the corresponding IC50.
Could you give me the number in µM? Just the number is fine.

5-lipoxygenase (Rattus norvegicus, UniProt P12527) / IC50 / Fc1ccc(-c2nc(-c3ccc(F)cc3)c(-c3ccc(F)cc3)[nH]2)cc1 : value?
10

5-lipoxygenase (Rattus norvegicus, UniProt P12527) / IC50 / COc1ccc(-c2nc(SC)n(C)c2-c2ccc(OC)cc2)cc1 : value?
13

5-lipoxygenase (Rattus norvegicus, UniProt P12527) / IC50 / COc1ccc(-c2nc(NC#N)[nH]c2-c2ccc(OC)cc2)cc1 : value?
3.1

5-lipoxygenase (Rattus norvegicus, UniProt P12527) / IC50 / COc1ccc(-c2nc(C(F)(F)F)[nH]c2-c2ccc(OC)cc2)cc1 : value?
0.7

5-lipoxygenase (Rattus norvegicus, UniProt P12527) / IC50 / N#CNc1nc(-c2ccc(F)cc2)c(-c2ccc(F)cc2)[nH]1 : value?
8

5-lipoxygenase (Rattus norvegicus, UniProt P12527) / IC50 / Fc1ccc(-c2[nH]c(SC(F)(F)C(F)F)nc2-c2ccncc2)cc1 : value?
95

5-lipoxygenase (Rattus norvegicus, UniProt P12527) / IC50 / CCSc1nc(-c2ccc(OC)cc2)c(-c2ccc(OC)cc2)n1CC : value?
10.4

5-lipoxygenase (Rattus norvegicus, UniProt P12527) / IC50 / Fc1ccc(-c2[nH]c(S)nc2-c2ccncc2)cc1 : value?
17

5-lipoxygenase (Rattus norvegicus, UniProt P12527) / IC50 / O=S(=O)(c1nc(-c2ccc(F)cc2)c(-c2ccc(F)cc2)[nH]1)C(F)(F)C(F)F : value?
16
